test system: U2OS; test: cell viability relative to DMSO; higher = less toxic; settings: 72 h; 1 nM
For each entry below, report its cell viability value.
Give bare numbers, in %.

As a guide, the following entries are already answered.
compound	cell viability, %
CC(=O)Nc1ccc(NC(=S)NC(=O)c2ccc(C(C)(C)C)cc2)cc1	95.6
CCCCC(=O)O[C@H]1CC[C@H]2[C@@H]3CCc4cc(O)ccc4[C@H]3CC[C@]12C [ESTRADIOL VALERATE]	106
Cc1cccc(C)c1NC(=O)CC12CCCN1CCC2 [pilsicainide]	96.3
CC(C)(C)C(=O)OCOC(=O)[C@@H]1N2C(=O)[C@@H](/N=C/N3CCCCCC3)[C@H]2SC1(C)C	102
OC[C@@H](O)[C@H]1O[C@@H]2O[C@H](C(Cl)(Cl)Cl)O[C@@H]2[C@H]1O	98.1
O=C1Nc2cc(Cl)c(Cl)cc2N2CCNC[C@H]12	102
CC(C)N(CCc1c[nH]c2ccccc12)C(C)C	101
O=C(O)c1ccc(NC(=O)[C@H](Cc2ccc(O)cc2)NC(=O)c2ccccc2)cc1 [bentiromide]	105

IN: Return reported cell viability for target or system U2OS, item COC1=C[C@@H]2[C@@H]3Cc4ccc(OC)c(O)c4[C@]2(CCN3C)CC1=O .
OUT: 94.1
